tested on: K562; assay: Cell cycle arrest in human K562 cells assessed as accumulation at G2/M phase at 10 uM after 24 hrs by flow cytometry; assay type: functional
experimental readout: Activity (%)
Answer in %, number only, no unit symbol.

Example cases with answers are listed next.
COc1ccc(C(=O)/C=C/c2cccc(F)c2)c(OC)c1: 32
COc1cccc(OC)c1C(=O)/C=C/c1c(C)cc(C)cc1C: 23
COc1ccc(C(=O)/C=C/c2cc(OC)c(OC)cc2OC)c(O)c1: 15
COc1ccc(C(=O)/C=C/c2ccccc2Cl)c(O)c1: 67
COc1cc(O)c(C(=O)/C=C/c2ccccc2)c(OC)c1 [FLAVOKAWAIN B]: 28
COc1cc(OC)c(C(=O)/C=C/c2c(OC)cccc2OC)c(OC)c1: 64
COc1cccc(OC)c1C(=O)/C=C/c1ccccc1F: 38
CCOc1cccc(OCC)c1C(=O)/C=C/c1c(OC)cc(OC)cc1OC: 10
COc1cccc(OC)c1/C=C/C(=O)c1c(OC)cccc1OC: 78
COc1ccc(C(=O)/C=C/c2cc(OC)c(OC)c(OC)c2)c(O)c1: 20

Can you share its Activity? I mean this compound: COc1ccc(C(=O)/C=C/c2ccc(OC)c(OC)c2OC)c(O)c1
20

One more compound: COc1ccc(C(=O)/C=C/c2cccc(OC)c2OC)c(O)c1
22

One more compound: CCOc1cccc(OCC)c1C(=O)/C=C/c1c(OC)cccc1OC
14

One more compound: COc1cccc(/C=C/C(=O)c2ccc(OC)cc2O)c1
26

One more compound: COc1cc(/C=C/C(=O)c2ccc(OC)cc2O)cc(OC)c1
40

One more compound: COc1ccc(C(=O)/C=C/c2ccc(OC)cc2OC)c(O)c1
18
